- System: transient sodium currents
- method-notes: IonWorks automated patch clamp, whole-cell voltage clamp
- Assay type: cell-based
- condition-set: inhibition of transient sodium currents, read-out: IW IC50
pIC50: −log10 of the molar value.
observable: pIC50

Query: Could you tell me which pIC50 is on file for Cc1ccc(C)c(OCCn2c(CN3CCCCC3)nc3ccccc32)c1 ?
Result: 4.64

For every record below, what is its pIC50?
1. Cc1cccc(OCCn2c(CN3CCOCC3)nc3ccccc32)c1
2. Cc1ccc(C)c(OCCn2c(CN3CCOCC3)nc3ccccc32)c1
3. Cc1ccc(OCCn2c(CN3CCOCC3)nc3ccccc32)cc1
4. C=CCc1ccc(OCCn2c(CN3CCOCC3)nc3ccccc32)c(OC)c1

Result:
1. < 4.52
2. < 4.52
3. < 4.52
4. ≤ 4.52

Provide pIC50 for all items below, preserving their order.
1. c1ccc(OCCn2c(CN3CCOCC3)nc3ccccc32)cc1
2. COc1ccc(OCCn2c(C(C)N3CCCCC3)nc3ccccc32)cc1 (centres unmarked)
3. COc1ccccc1OCCn1c(CN2CCOCC2)nc2ccccc21
4. Cc1ccc(OCCn2c(CN3CCCCC3)nc3ccccc32)cc1C
5. COc1ccc(OCCn2c(CN3CCOCC3)nc3ccccc32)cc1
6. CC(C)N(C(=O)Cn1c(CN2CCCCC2)nc2ccccc21)c1ccccc1

Result:
1: < 4.52; 2: < 4.52; 3: < 4.52; 4: 4.63; 5: < 4.52; 6: < 4.52
